Values from ChEMBL document CHEMBL1157256

Assay: Antioxidant activity in human neutrophils assessed as inhibition of superoxide generation at 10 ug/mL by colorimetric method relative to control
Type: functional
Settings: Neutrophil
outcome.measure: inhibition at 10 µg/mL (%)
The answer is to be given in %; state only the numeric part.

Problem: Would you kindly share the measured inhibition at 10 µg/mL for CC(=O)O[C@H]1CC/C(C)=C\[C@@H]2OC(=O)[C@H](C)[C@@]2(O)[C@@H](OC(C)=O)[C@H]2[C@@]3(CC[C@H](OC(C)=O)[C@]12C)CO3 ?
Solution: 22.6

Problem: Then this molecule: CC(=O)O[C@H]1CC[C@@]2(CO2)[C@@H]2[C@H](OC(C)=O)[C@]3(O)[C@@H](C)C(=O)O[C@H]3[C@@H]3O[C@]3(C)CC[C@H](OC(C)=O)[C@@]12C [JUNCEELLOLIDE J]
Solution: 7.66

Problem: Another molecule to look at: CC(=O)O[C@H]1CC[C@]2(CO2)[C@@H]2[C@H](OC(C)=O)[C@]3(O)[C@@H](C)C(=O)O[C@H]3[C@@H](O)[C@](C)(O)CC[C@H](OC(C)=O)[C@@]12C [JUNCEELLOLIDE L]
Solution: 5.55

Problem: Same lookup for CC(=O)O[C@H]1CC/C(C)=C\[C@@H]2OC(=O)[C@H](C)[C@@]2(O)[C@@H](OC(C)=O)[C@H]2[C@]3(CC[C@H](OC(C)=O)[C@]12C)CO3 [JUNCEELLOLIDE K] , please.
Solution: 13.9
